System: SK-MEL-5 melanoma
Assay: NCI tumour cell line growth inhibition, 48 h
Quick reference for TGI among some molecules
Give the number; µM is assumed, so skip it.

CC(=O)OC1CCC2C(=CCC3C2(C)C(=O)CC2(C)C(C4(C)OC(C(C)C)=CC4=O)C(O)CC32C)C1(C)C (stereo not given) | 56.9

Quick one: give measured TGI for Clc1ccc(C2CC(c3cccc(Nc4ccncc4)c3)=NN2c2cc(Cl)cc(Cl)c2)cc1 (stereo not given)
3.38

Give TGI for the following molecule: COc1cc2c3c(n(CCCBr)c(=O)c2cc1OC)-c1ccc(F)cc1C3=O
24.1

* * *

Test system: OVCAR-3 ovarian
Assay: NCI tumour cell line growth inhibition, 48 h; in the data active = GI50 below about 0.43 µM; inactive = the rest
API: response.call in yes (1) = active, no (0) = inactive

The examples below pair each entry with its known result.
O=C(N/N=C/c1ccc(Cl)cc1Cl)c1ccc2nc(-c3ccc(Cl)cc3)[nH]c2c1 | no (0)
COC(=O)[C@]12CC[C@@H](C)[C@H](C)[C@@H]1C1=CC[C@@H]3[C@@]4(C)C(C=O)=C[C@@](C)(COS(C)(=O)=O)C4[C@H](O)C[C@@]3(C)[C@]1(C)CC2 (some centres not stated) | no (0)
CCN(CC)CCOC(=O)Cc1cccc2c(=O)cc(-c3ccccc3)oc12 | no (0)
COc1cc(F)c(/C=C/c2cc(/C=C/c3cc(OC)c(OC)cc3F)n(-c3cc(F)cc(F)c3)n2)cc1OC | no (0)

For CC(C)C(=O)[O-].CC(C)C(=O)[O-].N.N.N.N.[Co+3].[O-][Cl+3]([O-])([O-])[O-] , which call appears in the assay record?
no (0)

Please state the recorded outcome for this molecule: COc1ccc(-c2ccc(-c3ccc(C(=N)N)cn3)o2)cc1Cl
no (0)

Just curious, what result did Cc1ccc2nc(-c3ccc(N)c4ccccc34)[nH]c2c1 get here?
no (0)

* * *

Tested on: EKVX NSCLC
Test: NCI tumour cell line growth inhibition, 48 h
As shown below, each of these compounds has a reported TGI value.

CN(C)c1ccc(/C=C/C(=O)O)cc1 | > 100 µM
NCc1c(C(N)=O)ncn1Cc1ccccc1 | > 100 µM
COc1cccc(C2SC(C)C(=O)N2CCc2cccs2)c1 (stereo not given) | 10.7 µM

Complete the entry with TGI for c1ccc(B2OCC(C3OB(c4ccccc4)OC4COB(c5ccccc5)OC43)O2)cc1 (stereo not given)
> 100 µM

Provide TGI value for the following compound: CSc1ccc(SC2c3ccc(C)cc3Oc3nc(N)c(C#N)c(N)c32)cc1 (stereo not given)
2.99 µM

Please indicate TGI recorded for CCOC(=O)C(C)(C)Oc1ccc2c(-c3ccc(Cl)cc3)c(-c3ccc(Cl)cc3)c(=O)oc2c1
> 100 µM

* * *

Test system: M14 melanoma
Experiment: NCI tumour cell line growth inhibition, 48 h
metric: GI50

Use the examples below as a reference point.
N#Cc1ccc(Oc2cccc(Oc3ccccc3)c2)cc1C#N | > 100 µM
COc1cc(NC(=O)NCc2ccco2)ccc1-c1ccc(NC(=O)NCc2ccco2)cc1OC | 3.2 µM
Nc1c(C(=O)N/N=C/c2ccc(-c3cc(Cl)c(Cl)cc3Cl)o2)cnn1-c1ccnc2c(C(F)(F)F)cccc12 | 5.28 µM
Clc1ccc(C2CC(c3cccc(Nc4ccncc4)c3)=NN2c2cc(Cl)cc(Cl)c2)cc1 (stereo not given) | 1.81 µM

For CCNNC(=O)[C@@H]1[C@H](c2cc(OC)c(OC)c(OC)c2)c2cc3c(cc2[C@H](O)[C@H]1CO)OCO3 , write its GI50.
0.369 µM
